Origin of values: the Deep4Chem optical property database

- assay remarks: solvent given as SMILES
- settings: in CC(C)=O
Kindly supply the reported emission maximum values for the records listed here.
Express the reported value numerically, then name its unit.

// query For the compound shown here, `[C-]#[N+]c1ccc(-c2ccc(N(C)C)cc2)cc1` , give the reported emission maximum.
// result 422 nm

// query For the compound shown here, `CCNc1ccc2c(C(F)(F)F)cc(=O)oc2c1` , give the reported emission maximum.
// result 485 nm

// query For the compound shown here, `CCC1=C(C)C2=Cc3cc(I)c(I)n3[B-](F)(F)[N+]2=C1C` , give the reported emission maximum.
// result 552.5 nm

// query For the compound shown here, `CCN(CC)c1ccc2cc(/C=C/C(O)=C3\CC/C(=C\c4cc5ccc(N(CC)CC)cc5oc4=O)C3=O)c(=O)oc2c1` , give the reported emission maximum.
// result 613 nm

// query For the compound shown here, `CN(C)c1ccc(/C=C/c2cc[n+](CCCCCCCCCCCC[n+]3ccc(/C=C/c4ccc(N(C)C)cc4)cc3)cc2)cc1` , give the reported emission maximum.
// result 602 nm

// query For the compound shown here, `COc1ccc(-n2c3ccccc3c3cc(C=C(C#N)C#N)ccc32)cc1` , give the reported emission maximum.
// result 525 nm

// query For the compound shown here, `COc1ccc(/C=C/C2=CC(/C=C/c3ccc(OC)cc3)=[O+][B-](F)(F)O2)cc1` , give the reported emission maximum.
// result 534 nm

// query For the compound shown here, `CN(CCO)c1ccc(/C=C/C2=CC(=C(C#N)C#N)CC(C)(C)C2)cc1` , give the reported emission maximum.
// result 648 nm

// query For the compound shown here, `CN(C)c1ccc2c(c1)C(=O)NC2=O` , give the reported emission maximum.
// result 483 nm

// query For the compound shown here, `COc1ccc(/C=C/c2nc(/C=C/c3ccc(N(c4ccccc4)c4ccccc4)cc3)cc(/C=C/c3ccc(N(c4ccccc4)c4ccccc4)cc3)n2)cc1` , give the reported emission maximum.
// result 555 nm

###

Kindly supply the reported emission maximum values for the records listed here.
- assay remarks: solvent given as SMILES
- settings: in CC#N
Entry rule: numbers only, all in nm.

// query For the compound shown here, `O=S1(=O)c2ccccc2-c2cc(-c3c4ccccc4cc4ccccc34)ccc21` , give the reported emission maximum.
// result 514.77

// query For the compound shown here, `CCCCn1c2c(-c3ccc(N(c4ccccc4)c4ccccc4)cc3)cc(C#N)cc2c2cc(C#N)cc(-c3ccc(N(c4ccccc4)c4ccccc4)cc3)c21` , give the reported emission maximum.
// result 476

// query For the compound shown here, `CCn1c2ccccc2c2cc(/C=C/c3cccc(/C=C/c4ccc5c(c4)c4ccccc4n5CC)[n+]3CCCS(=O)(=O)[O-])ccc21` , give the reported emission maximum.
// result 579

// query For the compound shown here, `Oc1ccc2ccccc2c1C1Nc2cccc3cccc(c23)N1` , give the reported emission maximum.
// result 540

// query For the compound shown here, `O=C1O[B-]2(OC1=O)OC(c1ccc3ccccc3c1)=CC(c1ccc3ccccc3c1)=[O+]2` , give the reported emission maximum.
// result 550

// query For the compound shown here, `Cn1c(=O)cc(C(=O)c2ccccc2)c2sc(-c3ccc(N(c4ccccc4)c4ccccc4)cc3)cc21` , give the reported emission maximum.
// result 504

// query For the compound shown here, `F[B-]1(F)OC(c2ccccc2)=Nc2sc(-c3ccccc3)n[n+]21` , give the reported emission maximum.
// result 415

// query For the compound shown here, `CN(C)c1ccc(/C=C/c2cc[n+](CCCCCCCCCCCC[n+]3ccc(/C=C/c4ccc(N(C)C)cc4)cc3)cc2)cc1` , give the reported emission maximum.
// result 602

// query For the compound shown here, `COC(=O)CC1(C(=O)O)Oc2c(c(C(C)=O)c3c(c2C(C)=O)OCO3)O1` , give the reported emission maximum.
// result 547

// query For the compound shown here, `O=[N+]([O-])c1ccc(/C=C/c2c[nH]c3ccccc23)cc1` , give the reported emission maximum.
// result 642

// query For the compound shown here, `O=c1[nH]c(=O)c2scc([C@H]3C[C@H](O)[C@@H](CO)O3)c2[nH]1` , give the reported emission maximum.
// result 345

// query For the compound shown here, `COc1cc(C=O)cc(-c2[nH]c(=O)n3c2-c2ccccc2C3=O)c1O` , give the reported emission maximum.
// result 473

// query For the compound shown here, `CC(C)(C)c1ccc(-c2nc3c4ccccc4c4ccccc4c3n2-c2ccc(C(C)(C)C)cc2)cc1` , give the reported emission maximum.
// result 389

// query For the compound shown here, `c1ccc2cc(-n3c4ccccc4c4ccccc43)ccc2c1` , give the reported emission maximum.
// result 388

// query For the compound shown here, `CCN1C(=CC=Cc2n(CC)c3cc(Cl)c(Cl)cc3[n+]2CC)N(CC)c2cc(Cl)c(Cl)cc21` , give the reported emission maximum.
// result 529

// query For the compound shown here, `c1ccc(-c2nn(-c3ccccc3)c3nc4ccccc4cc23)cc1` , give the reported emission maximum.
// result 478.01

// query For the compound shown here, `O=CC1=C(c2ccc(-c3cccs3)s2)CCC1` , give the reported emission maximum.
// result 493

// query For the compound shown here, `CCCCC1(CCCC)c2cc(C#Cc3ccc4ccc5cccc6ccc3c4c56)ccc2-c2ccc(N(c3ccccc3)c3ccccc3)cc21` , give the reported emission maximum.
// result 557

// query For the compound shown here, CC1CC=C(c2ccc(-c3ccc(C#N)s3)s2)CC1 (centres undefined) , give the reported emission maximum.
// result 448

###

- assay remarks: solvent given as SMILES
- settings: in ClCCl
observed property: emission maximum (nm)
Entry rule: numbers only, all in nm.

// query For the compound shown here, `CCCCCCc1ccc2c(/C=N/c3ccc(/N=C/c4c(O)ccc5cc(CCCCCC)ccc45)cc3)c(O)ccc2c1` , give the reported emission maximum.
// result 546

// query For the compound shown here, `CCCCN1C(=O)C(=CC=C2N(CCCC)c3ccccc3N2CCCC)C(=O)N(CCCC)C1=S` , give the reported emission maximum.
// result 486

// query For the compound shown here, `C(=C\c1nc2ccccc2[nH]1)/c1ccc(-c2nc3c4cccnc4c4ncccc4c3[nH]2)cc1` , give the reported emission maximum.
// result 447

// query For the compound shown here, `CCOc1cccc2c1O[B-](F)(F)[n+]1c3c(c4c(c1-2)-c1ccccc1CC4)-c1ccccc1CC3` , give the reported emission maximum.
// result 483

// query For the compound shown here, `CCOCCOCCOC(=O)/C=C/C1=CC2=C(c3c(C)cc(C)cc3C)c3cc(/C=C/C(=O)OCCOCCOCC)cn3[B-](F)(F)[N+]2=C1` , give the reported emission maximum.
// result 606

// query For the compound shown here, `CC(C)(C)c1ccc(-c2cc(-c3ccc(-c4cc(-c5ccc(C(C)(C)C)cc5)c(C(=O)N5CCCCC5)s4)s3)sc2C(=O)N2CCCCC2)cc1` , give the reported emission maximum.
// result 461

// query For the compound shown here, `N#Cc1cc(/C=C/c2ccc(N(c3ccccc3)c3ccccc3)cc2)ccc1/C=C/c1ccc(/C=C/c2ccc(N(c3ccccc3)c3ccccc3)cc2)cc1` , give the reported emission maximum.
// result 560

// query For the compound shown here, `O=C1c2ccccc2C2=Cc3cccc[n+]3[B-](F)(F)N12` , give the reported emission maximum.
// result 454

###

- assay remarks: solvent given as SMILES
- settings: in O=P(c1ccccc1)(c1ccccc1)c1ccccc1Oc1ccccc1P(=O)(c1ccccc1)c1ccccc1
observed property: emission maximum (nm)
Entry rule: numbers only, all in nm.

// query For the compound shown here, `O=C(c1ccc(-n2c3ccccc3c3ccccc32)cc1)c1ccc(-n2c3ccccc3c3ccccc32)cc1` , give the reported emission maximum.
// result 444

// query For the compound shown here, `Cc1cc(-n2c3ccccc3c3cc4c(cc32)C2c3ccccc3C4c3ccccc32)ccc1-c1nc(-c2ccccc2)nc(-c2ccccc2)n1` , give the reported emission maximum.
// result 444

// query For the compound shown here, `O=C(c1ccc(-n2c3ccccc3c3cc(-n4c5ccccc5c5ccccc54)ccc32)cc1)c1ccc(-n2c3ccccc3c3cc(-n4c5ccccc5c5ccccc54)ccc32)cn1` , give the reported emission maximum.
// result 475

// query For the compound shown here, `F[B-]1(F)Oc2ccccc2-c2cc(-n3c4ccc(-c5ccccc5)cc4c4cc(-c5ccccc5)ccc43)cc[n+]21` , give the reported emission maximum.
// result 496

// query For the compound shown here, `COc1ccc(-c2nnc(-c3cc(-c4nnc(-c5ccc(OC)cc5)o4)c(-n4c5ccccc5c5ccccc54)cc3-n3c4ccccc4c4ccccc43)o2)cc1` , give the reported emission maximum.
// result 452

// query For the compound shown here, `COc1ccc2c(c1)c1cc(OC)ccc1n2-c1cccc(-n2c3ccc(OC)cc3c3cc(OC)ccc32)c1C#N` , give the reported emission maximum.
// result 462

// query For the compound shown here, `Cc1c(-c2ccc(N3c4ccccc4C(C)(C)c4ccccc43)cc2)ncnc1-c1ccc(N2c3ccccc3C(C)(C)c3ccccc32)cc1` , give the reported emission maximum.
// result 481

// query For the compound shown here, `Cc1ccc2c(c1)c1cc(C)ccc1n2-c1cccc(-n2c3ccc(C)cc3c3cc(C)ccc32)c1C#N` , give the reported emission maximum.
// result 432

// query For the compound shown here, `CC(C)(C)c1ccc2c(c1)c1cc(C(C)(C)C)ccc1n2-c1ccccc1-c1nc(-c2ccccc2-n2c3ccc(C(C)(C)C)cc3c3cc(C(C)(C)C)ccc32)nc(-c2ccccc2P(=O)(c2ccccc2)c2ccccc2)n1` , give the reported emission maximum.
// result 500

// query For the compound shown here, `Cc1c(-c2nc(-c3ccccc3)nc(-c3ccccc3)n2)ccc(-n2c3ccccc3c3cc4c(cc32)C2c3ccccc3C4c3ccccc32)c1C` , give the reported emission maximum.
// result 435

// query For the compound shown here, `c1ccc(-c2nc(-c3ccccc3)nc(-c3ccc(-n4c5ccccc5c5cc6c(cc54)C4(c5ccccc5-c5ccccc54)c4ccccc4-6)cc3)n2)cc1` , give the reported emission maximum.
// result 470

// query For the compound shown here, `c1ccc(-c2nc(-c3ccccc3)nc(-c3ccc(-n4c5ccccc5c5cc6c(cc54)C4c5ccccc5C6c5ccccc54)cc3)n2)cc1` , give the reported emission maximum.
// result 457

// query For the compound shown here, `Cc1cc(-c2nc(-c3ccccc3)nc(-c3ccccc3)n2)ccc1N1c2ccccc2[Si](c2ccccc2)(c2ccccc2)c2ccccc21` , give the reported emission maximum.
// result 460

// query For the compound shown here, `Cc1nnc(-c2cc(-c3nnc(C)o3)c(-n3c4ccccc4c4ccccc43)cc2-n2c3ccccc3c3ccccc32)o1` , give the reported emission maximum.
// result 448
